Reported IC50 values for a set of molecules
# SYSTEM_TESTED: Constitutive 20S proteasome chymotrypsin-like (CT-L) activity (Homo sapiens (Human), UniProt P20618+P28074)
# TEST_DETAILS: Constitutive 20S proteasome CT-L activity inhibition, fluorogenic substrate succinyl-Leu-Leu-Val-Tyr-AMC
# Assay type: biochemical
# DETAILS: purified human 20S proteasome, room temperature, one hour; read-out: Proteasome inhibition IC50 (nM) Constitutive 20S proteasome CT-L
# Experimental: Inhibition of the 20S proteasome can be determined by methods and assays known in the art, for example, as disclosed by Stein et al., Biochemistry (1996), 35, 3899-3908; by Lightcap et al., Clinical Chemistry, 2000, 46, 673-683; by Kisselev et al., Journal of Biological Chemistry. […] The free fluorophore 7-Amino-4-methylcoumarin (AMC) after cleavage from the substrates is quantified using a fluorometer and activity of CT-L, PGPH and T-L of 20S proteasome is determined. […]
ENDPOINT: IC50

>>> print(df.to_string())
                                 smiles_text  endpoint  value_measured
 0  Cc1cc(C(=O)N[C@@H](CCc2ccccc2)C(=O)N[C@@H](Cc2ccncc2)C(=O)N[C@@H](CC(C)C)C(=O)[C@@]2(C)CO2)no1      IC50         6.56 nM
 1  COC[C@H](NC(=O)c1cc(C)on1)C(=O)N[C@@H](Cc1ccncc1)C(=O)N[C@@H](CC(C)C)C(=O)[C@@]1(C)CO1      IC50          113 nM
 2  COC[C@H](NC(=O)[C@H](CCc1ccccc1)NC(=O)c1cnc(C)s1)C(=O)N[C@@H](Cc1ccccc1)C(=O)[C@@]1(C)CO1      IC50         9.75 nM
 3  CC(C)C[C@H](NC(=O)[C@H](CCc1ccccc1)NC(=O)c1cc(CN2CCOCC2)on1)C(=O)N[C@@H](Cc1ccccc1)C(=O)[C@@]1(C)CO1      IC50         0.97 nM
 4  CC(=O)N[C@@H](CCc1ccccc1)C(=O)N[C@@H](Cc1ccncc1)C(=O)N[C@@H](CC(C)C)C(=O)[C@@]1(C)CO1      IC50         62.4 nM
 5  COC[C@H](NC(=O)[C@H](CCc1ccccc1)NC(=O)c1cc(CN2CCOCC2)on1)C(=O)N[C@@H](CC(C)C)C(=O)[C@@]1(C)CO1      IC50           16 nM
 6  COC[C@H](NC(=O)[C@H](CCc1ccccc1)NC(=O)Cc1ccc(CN2CCOCC2)cc1)C(=O)N[C@@H](Cc1ccccc1)C(=O)[C@@]1(C)CO1      IC50         3.73 nM
 7  CC(C)C[C@H](NC(=O)[C@H](Cc1ccccc1)NC(=O)[C@H](CCc1ccccc1)NC(=O)c1cc(CN2CCOCC2)on1)C(=O)[C@@]1(C)CO1      IC50         4.28 nM
 8  COC[C@H](NC(=O)[C@H](CCc1ccccc1)NC(=O)Cc1ccc(CN2CCOCC2)cc1)C(=O)N[C@@H](CC(C)C)C(=O)[C@@]1(C)CO1      IC50          6.1 nM
 9  COC[C@H](NC(=O)[C@H](CCc1ccccc1)NC(=O)c1cc(CN2CCOCC2)on1)C(=O)N[C@@H](Cc1ccccc1)C(=O)[C@@]1(C)CO1      IC50         14.2 nM
10  CC(C)C[C@H](NC(=O)[C@H](CCc1ccccc1)NC(=O)c1cc(CN2CCOCC2)on1)C(=O)N[C@@H](Cc1ccncc1)C(=O)[C@@]1(C)CO1      IC50         33.3 nM
11  COC[C@H](NC(=O)c1cc(CN2CCOCC2)on1)C(=O)N[C@@H](Cc1ccncc1)C(=O)N[C@@H](CC(C)C)C(=O)[C@@]1(C)CO1      IC50          121 nM
12  CC(C)C[C@H](NC(=O)[C@H](CCc1ccccc1)NC(=O)CN1CCOCC1)C(=O)N[C@@H](Cc1ccncc1)C(=O)[C@@]1(C)CO1      IC50        > 500 nM
13  CC(C)C[C@H](NC(=O)[C@H](CCc1ccccc1)NC(=O)CN1CCOCC1)C(=O)N[C@@H](Cc1ccccc1)C(=O)[C@@]1(C)CO1      IC50         4.74 nM

* * *

# SYSTEM_TESTED: 20S Immunoproteasome chymotrypsin-like (CT-L) activity (Homo sapiens (Human), UniProt P20618+P28062)
# TEST_DETAILS: 20S immunoproteasome CT-L activity inhibition, fluorogenic substrate succinyl-Leu-Leu-Val-Tyr-AMC
# Format: biochemical
# DETAILS: purified human 20S proteasome, room temperature, one hour
# if measured IC50 < 60 nM: TRUE  # else: FALSE

                                   compound  group
0  COC[C@H](NC(=O)c1cc(C)on1)C(=O)N[C@@H](Cc1ccncc1)C(=O)N[C@@H](CC(C)C)C(=O)[C@@]1(C)CO1 [CX13-501]  FALSE
1  COC[C@H](NC(=O)c1cc(CN2CCOCC2)on1)C(=O)N[C@@H](Cc1ccncc1)C(=O)N[C@@H](CC(C)C)C(=O)[C@@]1(C)CO1 [CX13-500]  FALSE
2  CC(C)C[C@H](NC(=O)[C@H](CCc1ccccc1)NC(=O)c1cc(CN2CCOCC2)on1)C(=O)N[C@@H](Cc1ccncc1)C(=O)[C@@]1(C)CO1 [CX13-104]   TRUE

* * *

# SYSTEM_TESTED: 20S Immunoproteasome chymotrypsin-like (CT-L) activity (Homo sapiens (Human), UniProt P20618+P28062)
# TEST_DETAILS: 20S immunoproteasome CT-L activity inhibition, fluorogenic substrate succinyl-Leu-Leu-Val-Tyr-AMC
# Assay type: biochemical
# DETAILS: purified human 20S proteasome, room temperature, one hour
ENDPOINT: IC50 (nM)

In [3]: df
Out[3]:
                                smiles_text  inequality_symbol  value_measured
0  CC(C)C[C@H](NC(=O)[C@H](Cc1ccncc1)NC(=O)[C@H](CCc1ccccc1)NC(=O)Cc1ccc(CN2CCOCC2)cc1)C(=O)[C@@]1(C)CO1                  =            4.65
1  CC(C)C[C@H](NC(=O)[C@H](CCc1ccccc1)NC(=O)c1cc(CN2CCOCC2)on1)C(=O)N[C@@H](Cc1ccccc1)C(=O)[C@@]1(C)CO1                  =            1.34
2  CC(=O)N[C@@H](CCc1ccccc1)C(=O)N[C@@H](Cc1ccncc1)C(=O)N[C@@H](CC(C)C)C(=O)[C@@]1(C)CO1                  =             248
3  CC(C)C[C@H](NC(=O)[C@H](CCc1ccccc1)NC(=O)CN1CCOCC1)C(=O)N[C@@H](Cc1ccncc1)C(=O)[C@@]1(C)CO1                  >             500
4  COC[C@H](NC(=O)[C@H](CCc1ccccc1)NC(=O)c1cnc(C)s1)C(=O)N[C@@H](Cc1ccccc1)C(=O)[C@@]1(C)CO1                  =            15.3
5  COC[C@H](NC(=O)[C@H](CCc1ccccc1)NC(=O)c1cc(CN2CCOCC2)on1)C(=O)N[C@@H](CC(C)C)C(=O)[C@@]1(C)CO1                  =            31.7

* * *

IC50 values by entry
# SYSTEM_TESTED: Constitutive 20S proteasome trypsin-like (T-L) activity (Homo sapiens (Human), UniProt P49720+Q99436)
# TEST_DETAILS: Constitutive 20S proteasome T-L activity inhibition, fluorogenic substrate Boc-Leu-Arg-Arg-AMC
# Format: biochemical
# DETAILS: purified human 20S proteasome, room temperature, one hour; read-out: Proteasome inhibition IC50 (nM) Constitutive 20S proteasome T-L
ENDPOINT: IC50

>>> print(df.to_string())
                                smiles_text  value_measured
0  COC[C@H](NC(=O)c1cc(C)on1)C(=O)N[C@@H](Cc1ccncc1)C(=O)N[C@@H](CC(C)C)C(=O)[C@@]1(C)CO1      > 20000 nM
1  CC(C)C[C@H](NC(=O)[C@H](CCc1ccccc1)NC(=O)CN1CCOCC1)C(=O)N[C@@H](Cc1ccncc1)C(=O)[C@@]1(C)CO1      > 20000 nM
2  CC(C)C[C@H](NC(=O)[C@H](CCc1ccccc1)NC(=O)c1cc(CN2CCOCC2)on1)C(=O)N[C@@H](Cc1ccccc1)C(=O)[C@@]1(C)CO1      > 20000 nM
3  CC(C)C[C@H](NC(=O)[C@H](CCc1ccccc1)NC(=O)c1cc(CN2CCOCC2)on1)C(=O)N[C@@H](Cc1ccncc1)C(=O)[C@@]1(C)CO1      > 20000 nM
4  COC[C@H](NC(=O)[C@H](CCc1ccccc1)NC(=O)Cc1ccc(CN2CCOCC2)cc1)C(=O)N[C@@H](CC(C)C)C(=O)[C@@]1(C)CO1          297 nM
5  COC[C@H](NC(=O)[C@H](CCc1ccccc1)NC(=O)c1cc(CN2CCOCC2)on1)C(=O)N[C@@H](Cc1ccccc1)C(=O)[C@@]1(C)CO1      > 20000 nM
